Hello, the source for this data is paper PMC8506265, in case you need it.

biological target: human CB1 (Homo sapiens); experiment: BRET CAMYEL cAMP assay in HEK293 3HA-hCB1 cells; format: cell-based
Sequence (P21554 whole entry): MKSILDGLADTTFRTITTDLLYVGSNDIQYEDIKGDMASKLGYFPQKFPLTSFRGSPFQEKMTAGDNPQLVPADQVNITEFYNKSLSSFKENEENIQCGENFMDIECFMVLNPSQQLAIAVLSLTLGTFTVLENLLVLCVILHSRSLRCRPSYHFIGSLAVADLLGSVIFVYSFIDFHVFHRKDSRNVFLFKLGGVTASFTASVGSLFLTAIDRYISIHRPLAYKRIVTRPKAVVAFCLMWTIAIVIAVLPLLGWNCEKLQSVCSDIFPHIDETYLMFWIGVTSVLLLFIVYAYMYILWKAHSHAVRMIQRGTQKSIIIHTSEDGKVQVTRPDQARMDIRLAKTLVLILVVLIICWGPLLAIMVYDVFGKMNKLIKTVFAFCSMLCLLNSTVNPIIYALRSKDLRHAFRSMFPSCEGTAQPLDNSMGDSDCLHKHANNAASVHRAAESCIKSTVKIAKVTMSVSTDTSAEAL
pIC50: −log10 of the molar value.
READOUT_TYPE: pIC50

[
  {
    "MOLECULE_SMILES": "Cc1ccc(CCNC(=O)Nc2ccc(Cl)cc2)o1",
    "SYSTEM": "human CB1 (Homo sapiens)",
    "RESULT_VALUE": 5.40
  }
]
